biological target: Sl-CathL-mutSC; construct: ORF of Sl-CathL-CS (GenBank JZ136744.1) without signal peptide, C-terminal 6x His tag, expressed in P. pastoris KM71H; experiment: fluorogenic protease assay (AMC release), Ki by Morrison equation
Measure name: pKi
Bear in mind: pKi is minus log10 of a mol/L concentration; give just that figure.

Asked: Report pKi on Sl-CathL-mutSC for this entry: CC(C)C[C@H](NC(=O)[C@H]1O[C@@H]1C(=O)O)C(=O)NCCCCN=C(N)N
Given back: 4.41
